System: Setaria faberi (SETFA)
Test: Example B pre-emergence herbicidal greenhouse test
Format: in vivo
Conditions: 480 h, evaluated after 20 days, 100=total damage to plant, 0=no damage
measured-parameter: pest or weed control at 250 g/ha
Hey, just the number and the unit after it is fine.

Some entries whose results are on file:
COc1ccc(Cl)cc1-c1ccc(C)c(C2=C(O)[C@H]3CC[C@H](C3)C2=O)c1 (single isomer, unassigned); 0%
Cc1cc(-c2ccccc2)cc(C)c1C1=C(OC(=O)C(C)(C)C)C2CCC(C2)C1=O (stereo not drawn) [Compound P2]; 70%
Cc1ccc(-c2ccc(Cl)c(F)c2)cc1C1=C(O)[C@H]2CC[C@H](C2)C1=O (single isomer, unassigned); 100%
Cc1ccc(-c2ccc(Cl)cc2)cc1C1=C(O)[C@H]2CC[C@H](C2)C1=O; 100%

The compound Cc1ccc(-c2ccc(Cl)c(C#N)c2)cc1C1=C(O)[C@H]2CC[C@H](C2)C1=O (single isomer, unassigned) showed pest or weed control at 250 g/ha equal to 80%

Summary for this compound, COc1cc(Cl)ccc1-c1ccc(C)c(C2=C(O)[C@H]3CC[C@H](C3)C2=O)c1 (single isomer, unassigned) : pest or weed control at 250 g/ha is 10%

====

System: Echinochloa crus-galli (ECHCG)
Experiment: Example B post-emergence herbicidal greenhouse test
Format: in vivo
Conditions: 360 h, evaluated after 15 days, 100=total damage to plant, 0=no damage
Below, each of the compounds is paired with its reported pest or weed control at 125 g/ha value.
Only the number, expressed in %, is required.

Please review the following examples before continuing.
CCc1ccc(-c2ccc(Cl)c(C(F)(F)F)c2)cc1C1=C(O)[C@H]2CC[C@H](C2)C1=O (single isomer, unassigned) [Compound T37]; 100
Cc1ccc(-c2cccc(Cl)c2)cc1C1=C(O)[C@H]2CC[C@H](C2)C1=O (single isomer, unassigned) [Compound T7]; 0
COc1cc(Cl)ccc1-c1ccc(C)c(C2=C(O)[C@H]3CC[C@H](C3)C2=O)c1 (single isomer, unassigned) [Compound T11]; 20
CCc1cc(-c2ccc(Cl)cc2)ccc1C1=C(O)[C@H]2CC[C@H](C2)C1=O [Compound T59]; 100
Cc1cc(-c2ccccc2)cc(C)c1C1=C(O)[C@H]2CC[C@H](C2)C1=O [Compound T6]; 30

Read the next record carefully.
# pest or weed control at 125 g/ha (compound: CCc1ccc(-c2ccccc2)cc1C1=C(O)[C@H]2CC[C@H](C2)C1=O (single isomer, unassigned) [Compound T2] ) is 60

====

Recorded pest or weed control at 250 g/ha by entry
System: Setaria faberi (SETFA)
Test: Example B pre-emergence herbicidal greenhouse test
Type: in vivo
Conditions: 480 h, evaluated after 20 days, 100=total damage to plant, 0=no damage
# number only, unit % dropped from output

// solved cases for pest or weed control at 250 g/ha follow
Cc1ccc(-c2ccc(Cl)cc2C)cc1C1=C(O)[C@H]2CC[C@H](C2)C1=O (single isomer, unassigned) [Compound T26]; 50
CCc1ccc(-c2ccc(Cl)c(C)c2)cc1C1=C(O)[C@H]2CC[C@H](C2)C1=O [Compound T32]; 60
CCc1ccc(-c2ccc(Cl)c(C(F)(F)F)c2)cc1C1=C(O)[C@H]2CC[C@H](C2)C1=O (single isomer, unassigned) [Compound T37]; 100
Cc1ccc(-c2ccc(Cl)c(Cl)c2)cc1C1=C(O)[C@H]2CC[C@H](C2)C1=O (single isomer, unassigned) [Compound T10]; 80
CCc1ccc(-c2ccc(Cl)cc2Cl)cc1C1=C(OC(=O)OC)[C@H]2CC[C@H](C2)C1=O (single isomer, unassigned) [Compound P4]; 100
Cc1ccc(-c2ccc(F)c(Cl)c2)cc1C1=C(O)[C@H]2CC[C@H](C2)C1=O (single isomer, unassigned) [Compound T29]; 70
Cc1cc(-c2ccc(Cl)cc2)ccc1C1=C(O)[C@H]2CC[C@H](C2)C1=O [Compound T61]; 100
CCc1cc(-c2ccc(Cl)cc2)ccc1C1=C(O)[C@H]2CC[C@H](C2)C1=O [Compound T59]; 100
CCc1ccc(-c2ccc(Cl)cc2)cc1C1=C(O)[C@H]2CC[C@H](C2)C1=O [Compound T4]; 100
Cc1cc(-c2ccc(C)c(C3=C(O)[C@H]4CC[C@H](C4)C3=O)c2)ccc1Cl (single isomer, unassigned) [Compound T24]; 20

# pest or weed control at 250 g/ha (compound: CCc1ccc(-c2ccc(C)cc2)cc1C1=C(O)[C@H]2CC[C@H](C2)C1=O [Compound T5] ) is 0

Summary for this compound, CCc1ccc(-c2ccc(Cl)cc2F)cc1C1=C(O)[C@H]2CC[C@H](C2)C1=O (single isomer, unassigned) [Compound T41] : pest or weed control at 250 g/ha is 100

Value of measured pest or weed control at 250 g/ha for the entry CCc1cc(-c2ccc(C)cc2)cc(CC)c1C1=C(O)[C@H]2CC[C@H](C2)C1=O [Compound T63] : 70

compound CC(=O)OC1=C(c2c(C)cc(-c3ccccc3)cc2C)C(=O)[C@@H]2CC[C@H]1C2 [Compound P1] , pest or weed control at 250 g/ha observed: 70

Lab book: pest or weed control at 250 g/ha of CCc1ccc(-c2ccc(F)cc2)cc1C1=C(O)[C@H]2CC[C@H](C2)C1=O [Compound T3] noted as 100

Value of pest or weed control at 250 g/ha reported for the compound Cc1ccc(-c2cccc(Cl)c2)cc1C1=C(O)[C@H]2CC[C@H](C2)C1=O (single isomer, unassigned) [Compound T7] is 10

Lab book: pest or weed control at 250 g/ha of CCc1ccc(-c2ccc(Cl)cc2Cl)cc1C1=C(OC(C)=O)[C@H]2CC[C@H](C2)C1=O (single isomer, unassigned) [Compound P7] noted as 80

Recorded pest or weed control at 250 g/ha (compound Cc1cc(-c2ccccc2)cc(C)c1C1=C(O)[C@H]2CC[C@H](C2)C1=O [Compound T6] ): 80

Measured pest or weed control at 250 g/ha, CCc1ccc(-c2ccccc2)cc1C1=C(O)[C@H]2CC[C@H](C2)C1=O (single isomer, unassigned) [Compound T2] : 0

Recorded result, CCc1cc(-c2ccc(Cl)cc2)cc(CC)c1C1=C(O)[C@H]2CC[C@H](C2)C1=O [Compound T62] , pest or weed control at 250 g/ha: 100

Measured pest or weed control at 250 g/ha, CCc1ccc(-c2ccc(Cl)c(F)c2)cc1C1=C(O)[C@H]2CC[C@H](C2)C1=O (single isomer, unassigned) [Compound T36] : 90

CCc1ccc(-c2ccc(F)c(Cl)c2)cc1C1=C(O)[C@H]2CC[C@H](C2)C1=O (single isomer, unassigned) [Compound T39] yielded pest or weed control at 250 g/ha of 90

Memo: CCc1ccc(-c2ccc(Cl)cc2Cl)cc1C1=C(O)[C@H]2CC[C@H](C2)C1=O [Compound T44] , reported pest or weed control at 250 g/ha: 70

response.value for CCc1ccc(-c2ccc(Cl)cc2)cc1C1=C(O)[C@H]2CC[C@H](CC2)C1=O [Compound T54] (field: pest or weed control at 250 g/ha) = 90
